Data origin, for the record: patent US20260092115A1

study system: T1, human CTLA4 (soluble analyte of the Biacore assays of Examples 3-3, 4 and 5) (human, UniProt P16410 36-161)
T1 construct: also called hCTLA4
T1 sequence: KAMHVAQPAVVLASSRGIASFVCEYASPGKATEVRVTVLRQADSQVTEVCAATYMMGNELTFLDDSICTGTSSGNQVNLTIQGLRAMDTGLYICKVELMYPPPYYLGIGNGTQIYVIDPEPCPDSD
assay summary: SPR 37C, Ab on Protein G, 1000 nM CTLA4, ATP 1 uM; ATP 1 uM; binding amount at 1000 nM CTLA4
Listed binders paired with reported Binding to Human CTLA4 (amount per unit antibody)
// response body must contain only the number

Previously resolved entries follow.
1. 04H1077-G1m/04L1067-lam1 (antibody, human IgG1, lambda, V domains shown) VH: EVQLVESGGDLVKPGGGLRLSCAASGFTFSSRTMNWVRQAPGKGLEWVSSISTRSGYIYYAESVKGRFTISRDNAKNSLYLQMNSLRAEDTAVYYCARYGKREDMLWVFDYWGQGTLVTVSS VL: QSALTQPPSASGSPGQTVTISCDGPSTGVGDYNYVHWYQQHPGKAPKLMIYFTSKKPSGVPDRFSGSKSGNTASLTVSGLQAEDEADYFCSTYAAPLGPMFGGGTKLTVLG
0.041
2. 04H1077-G1m/04L1086-lam1 (antibody, human IgG1, lambda, V domains shown) VH: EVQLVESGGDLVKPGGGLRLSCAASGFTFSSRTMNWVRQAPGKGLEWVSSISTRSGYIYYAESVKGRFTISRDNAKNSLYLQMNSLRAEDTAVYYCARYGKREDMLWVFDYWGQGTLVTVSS VL: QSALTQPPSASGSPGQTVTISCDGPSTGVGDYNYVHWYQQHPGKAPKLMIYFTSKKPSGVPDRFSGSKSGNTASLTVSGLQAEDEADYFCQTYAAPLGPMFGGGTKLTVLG
0.031

Now, please, on to the next binder.
The value of Binding to Human CTLA4 (amount per unit antibody) measured for the binder 04H1077-G1m/04L1041-lam1 (antibody, human IgG1, lambda, V domains shown) VH: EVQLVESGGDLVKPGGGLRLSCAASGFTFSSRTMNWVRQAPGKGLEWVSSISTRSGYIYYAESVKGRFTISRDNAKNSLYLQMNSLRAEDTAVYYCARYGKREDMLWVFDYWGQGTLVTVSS VL: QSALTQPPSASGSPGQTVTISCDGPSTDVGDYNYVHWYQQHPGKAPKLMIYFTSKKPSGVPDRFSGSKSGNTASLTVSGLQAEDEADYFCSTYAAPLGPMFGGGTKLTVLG turned out to be 0.023
